study-target: Sodium/potassium-transporting ATPase
assay-text: Inhibition of [3H]- ouabain binding to digitalis receptor
Format: protein-complex assay, Cavia porcellus
Hi there, I'd appreciate the recorded pIC50 for every entry that follows.
Quick note: pIC50 means taking -log10 of the concentration in moles per liter.

[in] Which pIC50 is listed for COC(=O)[C@H]1CC[C@]2(O)[C@@H]3CC[C@@H]4C[C@@H](O[C@H]5C[C@@H](O)[C@H](O)C(C)O5)CC[C@]4(C)[C@H]3CC[C@]12C (stereo partly drawn) ?
[out] 4.82

[in] # input molecule: CC1O[C@@H](O[C@H]2CC[C@@]3(C)[C@H](CC[C@@H]4[C@@H]3CC[C@]3(C)[C@@H](C[N+](=O)[O-])CC[C@]43O)C2)C[C@@H](O)[C@@H]1O (stereo partly drawn) ; wanted: its pIC50
[out] 7.06

[in] Consider the molecule shown here: CC1O[C@@H](O[C@H]2CC[C@@]3(C)[C@H](CC[C@@H]4[C@@H]3CC[C@]3(C)[C@@H](CO)CC[C@]43O)C2)C(O)[C@@H](O)[C@H]1O (stereo partly drawn) What is its recorded pIC50?
[out] 6.44

###

study-target: Sodium/potassium-transporting ATPase
assay-text: Inhibition of [3H]- ouabain binding to digitalis receptor
Can you tell me IC50 for the items I'm about to list?
# output: bare number, implied unit nM

[in] Entry C[C@H]1O[C@@H](O[C@H]2[C@@H](O)C[C@H](O[C@H]3[C@@H](O)C[C@H](O[C@H]4CC[C@@]5(C)[C@H](CC[C@@H]6[C@@H]5CC[C@]5(C)[C@@H](C7=CC(=O)OC7)CC[C@]65O)C4)O[C@@H]3C)O[C@@H]2C)C[C@H](O)[C@@H]1O has what IC50?
[out] 8

[in] Return reported IC50; argument: CC1O[C@@H](O[C@H]2CC[C@@]3(C)[C@H](CC[C@@H]4[C@@H]3CC[C@]3(C)[C@@H](CO)CC[C@]43O)C2)C[C@@H](O)[C@@H]1O (stereo partly drawn)
[out] 610

[in] Please give the measured IC50 for this molecule: C[C@H]1O[C@H](O[C@H]2CC[C@@]3(C)[C@H](CC[C@@H]4[C@@H]3CC[C@]3(C)[C@@H](C(=O)CO)CC[C@]43O)C2)[C@H](O)[C@H](O)[C@H]1O
[out] 1070
